- System: U266 cells
- EXPERIMENT_SUMMARY: Annexin V/PI apoptosis assay (FACS), U266 cells; further: key: 0 for no; + for low; ++: + indicates the range of apoptosis induction; +++: + indicates the range of apoptosis induction; ++++ for very strong apoptosis induction
- Type: cell-based
- Parameters: unit not given here
- TEST_CONTEXT: 48 h, drug alone 1 μM

| SAMPLE_SMILES | apoptosis induction |
| --- | --- |
| CNC(=O)c1cc(Oc2ccc(NC(=O)Nc3ccc(Cl)c(C(F)(F)F)c3)cc2)ccn1 | + |
| CC(C)c1cc(/C=C(\C#N)C(=O)NCCCc2ccccc2)cc(C(C)C)c1O | 0 |
| Cn1c2ccccc2c2c3c(c4c5ccccc5n(CCC#N)c4c21)CNC3=O | 0 |
| C[C@@H]1C[C@H]2[C@@H]3CCC4=CC(=O)C=C[C@]4(C)[C@@]3(F)[C@@H](O)C[C@]2(C)[C@@]1(O)C(=O)CO | 0 |

====

- Test system: OPM2 cells
- EXPERIMENT_SUMMARY: Annexin V/PI apoptosis assay (FACS), OPM2 cells
- Format: cell-based
- TEST_CONTEXT: OPM2 cells, 48 h, drug alone 10 μM

| COMPOUND | apoptosis induction |
| --- | --- |
| N[C@@H](Cc1ccc(N(CCCl)CCCl)cc1)C(=O)O | + |
| CNC(=O)c1cc(Oc2ccc(NC(=O)Nc3ccc(Cl)c(C(F)(F)F)c3)cc2)ccn1 | ++ |
| CC(C)c1cc(/C=C(\C#N)C(=O)NCCCc2ccccc2)cc(C(C)C)c1O | + |
| O=C1CCC(N2C(=O)c3ccccc3C2=O)C(=O)N1 (stereo not shown) [Thalidomide] | 0 |

====

- System: OPM2 cells
- EXPERIMENT_SUMMARY: Annexin V/PI apoptosis assay (FACS), OPM2 cells
- Format: cell-based
- Set-up: unit not given here
- TEST_CONTEXT: OPM2 cells, 24 h, Imi 20 μg/ml + drug 1 μM
- Experimental: After treatment adherent cells were trypsinized (as described before), and resuspended in corresponding full medium. […] At least 10.000 cells were measured per sample using a Becton Dickinson FACSCalibur flow Cytometer (San Jose, Calif., USA). […] Briefly, BMMCs were stained with a mixture of annexin V/FITC (Alexis Coorp., Laeufelfingen, Switzerland), propidium iodide (Sigma), anti-CD38-PE and anti-CD45-PC5 for 15 min at room temperature and immediately analyzed by flow cytometry. […]
OUTCOME_MEASURE: apoptosis induction

| COMPOUND | OUTCOME_MEASURE | RESULT |
| --- | --- | --- |
| C[C@@H]1C[C@H]2[C@@H]3CCC4=CC(=O)C=C[C@]4(C)[C@@]3(F)[C@@H](O)C[C@]2(C)[C@@]1(O)C(=O)CO [Dex., Dexamethasone] | apoptosis induction | + |
| Cn1c2ccccc2c2c3c(c4c5ccccc5n(CCC#N)c4c21)CNC3=O [Gö 6976] | apoptosis induction | ++ |
| CC(C)c1cc(/C=C(\C#N)C(=O)NCCCc2ccccc2)cc(C(C)C)c1O [SU1498] | apoptosis induction | + |
| CNC(=O)c1cc(Oc2ccc(NC(=O)Nc3ccc(Cl)c(C(F)(F)F)c3)cc2)ccn1 [Sorafenib] | apoptosis induction | + |

Values were extracted from patent US8501734B2.
